pKi: −log10 of the molar value.
Field pKi: reported value for UniProtKB P31645; entries drawn from several documents.
MEASUREMENT_KIND: pKi

Clc1ccc(Oc2ncccc2OC[C@H]2CCCNC2)cc1Cl | 6.07
CC(C)N1CCN(CCCCc2ccc(C(CCN(C)C)Oc3ccc(C(F)(F)F)cc3)cc2)CC1 (centres unmarked) | 8.00
C[C@H]1[C@H](Oc2cc(Br)ccc2OCc2cccc(F)c2)CN1Cc1ccccc1 (relative stereo) | 5.30

1 = COc1ccc(Cl)cc1-c1ccccc1CO[C@H]1CCNC1
2 = Fc1ccc(-c2ccc(C(F)(F)F)cc2)c(CO[C@H]2CCNC2)c1
3 = Clc1ccc(OCc2ccc3occc3c2)c(OC2CNC2)c1
4 = Cc1ccc(OC[C@H]2CCCNC2)c(Oc2ccc(C(C)C)cc2)n1
5 = CCc1ccc(-c2ccccc2CO[C@H]2CCNC2)cc1
# ascending order, key=pKi Write out the labels following the order that was asked for.
4, 5, 2, 3, 1
(4: 5.62, 5: 6.28, 2: 6.69, 3: 7.62, 1: 7.91)

A = Cc1ccc(C)c(-c2ccccc2CO[C@H]2CCNC2)c1
B = CC1(Oc2cc(Br)ccc2OCc2cccc(Cl)c2)CNC1
C = CSc1cccc(-c2ccccc2CO[C@H]2CCNC2)c1
D = Fc1ccc2c(c1)CC(Oc1ccc(Cl)cc1OC1CNC1)C2 (centres unmarked)
E = O=C(c1ccccc1Cl)N(C1CCCCC1)[C@H]1CCNC1
Please rank these molecules by pKi in descending order. Write out the labels following the order that was asked for.
D, E, C, B, A
(D: 8.40, E: 7.96, C: 7.61, B: 7.39, A: 6.81)

P = COc1ccc(OC[C@H]2CCCNC2)c(Oc2ccc(Cl)cc2OC)c1
Q = CSc1ccc(C2CN(C)Cc3cc(OC4CCN(CCF)CC4)ccc32)cc1 (centres unmarked)
Just tell me: smaller pKi value, P or Q ? Write down the label attached to your selection.
P
(P: 6.92, Q: 8.40)
